assay: Drug metabolism in human liver microsomes; assay type: ADME, Microsome; conditions: read-out: Drug metabolism
Property Measured: metabolised (%)

P = O=c1cc(N2CCOCC2)nc(Cc2nc3c(-c4cccs4)cccc3o2)[nH]1
Q = O=c1cc(N2CCOCC2)nc(Cc2nc3ccccc3n2C2CCCCC2)[nH]1
R = O=c1cc(N2CCOCC2)nc(Cc2nc3c(-c4ccccc4)cccc3o2)[nH]1
S = O=c1cc(N2CCOCC2)nc(Cc2nc3c(-c4ccccc4)c(F)ccc3o2)[nH]1
List these items ordered by metabolised, big to small. Output spec: labels arranged per the requested ranking.
Q, P, R, S

###

system: Mus musculus; test: Inhibition of Akt phosphorylation at T308 residue in plasma of po dosed SCID mouse bearing human PTEN-deficient PC3 cells administered BID; format: functional, organism-based; conditions: PC-3, Plasma
Property Measured: pEC50
Quick note: pEC50 means taking -log10 of the concentration in moles per liter.

Fill in: pEC50 of Cn1c(Cc2nc(N3CCOCC3)cc(=O)[nH]2)nc2ccccc21 is ___
5.80

###

biological target: Phosphatidylinositol 4,5-bisphosphate 3-kinase catalytic subunit beta isoform (Homo sapiens, UniProt P42338); assay: Inhibition of human PI3Kbeta-mediated Akt phosphorylation at T308 residue expressed in PTEN-deficient human PC3 cells after 2 hrs by Western blot analysis; assay type: cell-based, PC-3
Sequence (P42338 whole entry, canonical isoform): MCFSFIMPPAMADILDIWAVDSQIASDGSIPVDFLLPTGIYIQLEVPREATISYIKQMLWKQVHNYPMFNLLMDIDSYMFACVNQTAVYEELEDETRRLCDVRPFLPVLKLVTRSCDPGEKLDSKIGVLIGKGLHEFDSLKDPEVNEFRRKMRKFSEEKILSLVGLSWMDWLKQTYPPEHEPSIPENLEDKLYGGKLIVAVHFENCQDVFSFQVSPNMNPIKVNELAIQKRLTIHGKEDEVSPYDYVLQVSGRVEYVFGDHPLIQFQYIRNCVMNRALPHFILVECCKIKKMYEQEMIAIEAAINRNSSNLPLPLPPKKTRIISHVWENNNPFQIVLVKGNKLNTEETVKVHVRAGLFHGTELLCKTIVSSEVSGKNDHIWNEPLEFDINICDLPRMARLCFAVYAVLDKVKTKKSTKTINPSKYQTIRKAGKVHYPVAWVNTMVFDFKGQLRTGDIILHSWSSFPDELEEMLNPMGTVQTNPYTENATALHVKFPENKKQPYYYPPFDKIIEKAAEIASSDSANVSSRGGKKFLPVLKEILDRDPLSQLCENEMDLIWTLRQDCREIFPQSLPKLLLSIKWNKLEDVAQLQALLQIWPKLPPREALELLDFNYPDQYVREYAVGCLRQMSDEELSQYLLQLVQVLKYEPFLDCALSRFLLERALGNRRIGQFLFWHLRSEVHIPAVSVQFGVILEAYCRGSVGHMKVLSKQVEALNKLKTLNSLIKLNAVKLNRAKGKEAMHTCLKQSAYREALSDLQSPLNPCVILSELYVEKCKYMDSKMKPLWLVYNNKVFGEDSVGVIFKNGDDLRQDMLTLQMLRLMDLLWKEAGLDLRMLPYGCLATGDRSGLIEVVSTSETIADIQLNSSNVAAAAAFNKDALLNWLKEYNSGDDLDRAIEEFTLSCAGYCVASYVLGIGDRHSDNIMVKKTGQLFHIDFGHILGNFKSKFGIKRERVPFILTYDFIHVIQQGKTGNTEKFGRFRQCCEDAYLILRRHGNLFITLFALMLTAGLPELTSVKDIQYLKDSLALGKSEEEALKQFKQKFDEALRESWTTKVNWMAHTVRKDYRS
pIC50: −log10 of the molar value.
Property Measured: pIC50

I = Cc1cc(C(C)Nc2ccccc2)c2oc(N3CCOCC3)cc(=O)c2c1 (stereo not drawn)
II = O=c1cc(N2CCOCC2)nc(Cc2nc3ccc(F)cc3[nH]2)[nH]1
III = Cn1c(Cc2nc(N3CCOCC3)cc(=O)[nH]2)nc2ccccc21
Output the listed items in decreasing order of pIC50. Returns: the labels arranged in the requested order.
I, II, III

###

assay: AUC (0 to 24 hrs) in CB17/ICR-Prkdc SCID mouse at 10 mg/kg, po; format: ADME, organism-based; parameters: time < 24 hr, dose 10 mg/kg, route oral; details: plasma
Property Measured: AUC(0-t) at 24 h (ng·h/mL)
Please respond with the number in ng·h/mL and leave the unit unwritten.

AUC(0-t) at 24 h lookup needed for Cn1c(Cc2nc(N3CCOCC3)cc(=O)[nH]2)nc2ccccc21 , thanks.
846

###

test: Terminal half life in CB17/ICR-Prkdc SCID mouse at 6 mg/kg, iv; assay type: ADME, organism-based; set-up: dose 6 mg/kg, route intravenous; conditions: in vivo, read-out: beta t1/2 (converted)
Property Measured: half-life (h)
Write it as a number; the unit h goes unstated.

Query: half-life; subject: Cn1c(Cc2nc(N3CCOCC3)cc(=O)[nH]2)nc2ccccc21
4.4

###

molecular target: Phosphatidylinositol 4,5-bisphosphate 3-kinase catalytic subunit delta isoform (Homo sapiens); assay: Inhibition of poly-His tagged human PI3Kdelta expressed in baculovirus infected insect sf9 cells coexpressing p85alpha using PI(4,5)P2 as substrate preincubated with compound for 15 mins measured after 10 mins by HTRF assay
pIC50: −log10 of the molar value.
Property Measured: pIC50

Worked cases, pIC50 given:
Name the recorded pIC50 for Cn1c(Cc2nc(N3CCOCC3)cc(=O)[nH]2)nc2c(-c3ccccc3)cccc21 .
6.56

Could you do the same for O=c1cc(N2CCOCC2)nc(Cc2nc3c(-c4cccs4)cccc3o2)[nH]1 , please?
6.40

# iterate: CCn1c(Cc2nc(N3CCOCC3)cc(=O)[nH]2)nc2ccccc21
6.65

1 = O=c1cc(N2CCOCC2)nc(Cc2nc3c(Br)cccc3o2)[nH]1
2 = O=c1cc(N2CCOCC2)nc(Cc2nc3c(-c4ccccc4)cccc3[nH]2)[nH]1
# query: argmin of pIC50 over 1 and 2 Your answer should be the label attached to the chosen record.
1
(1: 5.64, 2: 6.74)

###

assay: AUC (0 to infinity) in CB17/ICR-Prkdc SCID mouse at 6 mg/kg, iv; format: ADME, organism-based; parameters: time infinity, dose 6 mg/kg, route intravenous; details: plasma
Property Measured: AUC(0-inf) (µg·h/mL)
# value in µg·h/mL; strip the unit string

Value lookup for AUC(0-inf); key = Cn1c(Cc2nc(N3CCOCC3)cc(=O)[nH]2)nc2ccccc21
1.95

###

target: Phosphatidylinositol 4,5-bisphosphate 3-kinase catalytic subunit beta isoform (Homo sapiens); test: Inhibition of N-terminus poly-His tagged human PI3Kbeta expressed in baculovirus infected insect […] cells coexpressing p85alpha using PI(4,5)P2 as substrate preincubated with compound for 15 mins measured after 10 mins by HTRF assay
Property Measured: IC50 (µM)

Would you mind telling me what IC50 value was observed for O=c1cc(N2CCOCC2)nc(Cc2nc3c(-c4ccccn4)cccc3o2)[nH]1 ?
0.336

Entry to check: Cn1c(Cc2nc3cc(F)ccc3[nH]2)nc(N2CCOCC2)cc1=O
0.739

Next entry: Cn1c(Cc2nc(N3CCOCC3)cc(=O)[nH]2)nc2ccc(F)cc21
0.29

Another compound to check: O=c1cc(N2CCOCC2)nc(Cc2nc3ccc(Cl)cc3[nH]2)[nH]1
0.099

Same lookup for O=c1cc(N2CCOCC2)nc(Cc2nc3ccccc3o2)[nH]1 , please.
0.082

Moving on to the next compound: Cn1c(Cc2nc3ccccc3o2)nc(N2CCOCC2)cc1=O
1.33

What do you have for O=c1cc(N2CCOCC2)nc(Cc2nc3c(Br)cccc3o2)[nH]1 ?
0.585

Next record, please: Cn1c(Cc2nc(N3CCOCC3)cc(=O)[nH]2)nc2cccc(-c3ccccc3)c21
0.06

I = O=c1cc(N2CCOCC2)nc(Cc2nc3ccccc3n2C2CCCCC2)[nH]1
II = COc1ccc2[nH]c(Cc3nc(N4CCOCC4)cc(=O)[nH]3)nc2c1
Please indicate which item has the smaller measured IC50: I versus II Please indicate the selected item by its label.
I

###

molecular target: Phosphatidylinositol 4,5-bisphosphate 3-kinase catalytic subunit alpha isoform (Homo sapiens); experiment: Inhibition of N-terminus poly-His tagged human PI3Kalpha expressed in baculovirus infected insect sf9 cells coexpressing p85alpha using PI(4,5)P2 as substrate preincubated with compound for 15 mins measured after 10 mins by HTRF assay
pIC50: −log10 of the molar value.
Property Measured: pIC50

Consider the worked cases shown below.
Quick one: pIC50 for O=c1cc(N2CCOCC2)nc(Cc2nc3ccccc3n2-c2ccccc2)[nH]1 ?
5.17

Field entry: O=c1cc(N2CCOCC2)nc(Cc2nc3ccc(C(F)(F)F)cc3[nH]2)[nH]1
< 5.00

Try this molecule too: O=c1cc(N2CCOCC2)nc(Cc2nc3cccc(F)c3o2)[nH]1
< 5.00

Same for O=c1cc(N2CCOCC2)nc(Cc2nc3ccccc3o2)[nH]1
< 5.00

Note, next up: O=c1cc(N2CCOCC2)nc(Cc2nc3c(-c4ccccc4)c(F)ccc3o2)[nH]1
< 5.00

Now look at this one.
Would you mind telling me what pIC50 value was observed for Cn1c(Cc2nc(N3CCOCC3)cc(=O)[nH]2)nc2cc(F)ccc21 ?
< 5.00

###

test: AUC (0 to infinity) in CB17/ICR-Prkdc SCID mouse at 10 mg/kg, po; type: ADME, organism-based; set-up: time infinity, dose 10 mg/kg, route oral; conditions: plasma
Property Measured: AUC(0-inf) (ng·h/mL)
// return numeric value only (unit: ng·h/mL, not printed)

Item under review: Cn1c(Cc2nc(N3CCOCC3)cc(=O)[nH]2)nc2ccccc21 . Reported AUC(0-inf)?
850

###

assay: Oral bioavailability in CB17/ICR-Prkdc SCID mouse at 10 mg/kg; assay type: ADME, organism-based; conditions: in vivo
Property Measured: bioavailability (%)
Give a bare numeral; the unit % is implied.

Fill in the blank: the reported bioavailability of Cn1c(Cc2nc(N3CCOCC3)cc(=O)[nH]2)nc2ccccc21 is ____.
26

###

assay: Drug metabolism in mouse liver microsomes; assay type: ADME, Microsome; details: read-out: Drug metabolism
Property Measured: metabolised (%)

I = Cn1c(Cc2nc(N3CCOCC3)cc(=O)[nH]2)nc2cc(F)ccc21
II = O=c1cc(N2CCOCC2)nc(Cc2nc3cccc(-c4ccccc4)c3o2)[nH]1
Smaller metabolised value? Options are I and II Identify your pick by its label.
I
(I: 20%, II: 61%)

###

target: Phosphatidylinositol 4,5-bisphosphate 3-kinase catalytic subunit beta isoform (Homo sapiens, UniProt P42338); assay: Inhibition of N-terminus poly-His tagged human PI3Kbeta expressed in baculovirus infected insect […] cells coexpressing p85alpha using PI(4,5)P2 as substrate preincubated with compound for 15 mins measured after 10 mins by HTRF assay
Property Measured: IC50 (nM)

These solved cases illustrate the format of a correct answer.
Request the reported IC50 associated with COCCn1c(Cc2nc(N3CCOCC3)cc(=O)[nH]2)nc2cc(F)ccc21
205

Follow-up item: Cc1cccc2oc(Cc3nc(N4CCOCC4)cc(=O)[nH]3)nc12
461

Check O=c1cc(N2CCOCC2)nc(Cc2nc3c(-c4ccccc4)cccc3[nH]2)[nH]1 too.
10

1 = O=c1cc(N2CCOCC2)nc(Cc2nc3ccc(F)cc3o2)[nH]1
2 = Cc1cc(F)ccc1Oc1cccc2c(=O)cc(N3CCOCC3)[nH]c12
// task: argmin of IC50 over [ 1 , 2 ] Indicate your choice by writing its label.
2
(2: 32 nM, 1: 126 nM)

Ref: ChEMBL document CHEMBL2062364
